Source listed as patent US10722501B2.

Target: recombinant full-length human prolyl endopeptidase (PREP) (Homo sapiens)
Construct: To recombinant full-length human prolyl endopeptidase (PREP, R&D-Systems, 4308-SE)
Sequence (P48147 1-710): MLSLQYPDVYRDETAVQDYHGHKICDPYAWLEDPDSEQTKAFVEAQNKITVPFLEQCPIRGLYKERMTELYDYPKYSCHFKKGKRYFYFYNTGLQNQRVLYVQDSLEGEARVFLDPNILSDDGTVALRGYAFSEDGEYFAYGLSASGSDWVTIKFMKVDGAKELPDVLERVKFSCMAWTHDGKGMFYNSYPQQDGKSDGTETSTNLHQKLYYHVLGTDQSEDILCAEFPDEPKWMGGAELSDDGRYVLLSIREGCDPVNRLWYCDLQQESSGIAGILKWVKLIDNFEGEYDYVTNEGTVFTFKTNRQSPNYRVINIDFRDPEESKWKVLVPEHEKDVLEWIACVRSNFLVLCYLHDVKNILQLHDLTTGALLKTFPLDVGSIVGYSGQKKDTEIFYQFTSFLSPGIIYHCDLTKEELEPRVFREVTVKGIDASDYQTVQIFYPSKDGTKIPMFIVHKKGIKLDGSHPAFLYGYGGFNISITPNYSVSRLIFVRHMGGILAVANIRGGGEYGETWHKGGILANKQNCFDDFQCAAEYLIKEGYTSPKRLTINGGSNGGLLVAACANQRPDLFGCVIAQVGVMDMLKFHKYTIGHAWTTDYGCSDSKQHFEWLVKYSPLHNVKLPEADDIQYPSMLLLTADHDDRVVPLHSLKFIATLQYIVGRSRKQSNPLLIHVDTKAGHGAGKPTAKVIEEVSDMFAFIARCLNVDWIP
Assay: Biochemical human prolyl endopeptidase (PREP) assay with fluorescently labelled substrate
Details: substrate Z-Gly-Pro-AMC 50 μM, 32° C., 60 min; some as mean values from multiple independent determinations
What IC50 was measured for each of the following?
Field note: include the unit after the figure.

Prompt line: Give reported IC50 value for O=C([C@@H]1CCCc2nn(Cc3cncc(Cl)c3)c(=O)n21)N1CC(F)(F)C1
Response line: 7.1 nM

Prompt line: For the compound Cc1ccc(CCn2nc3n(c2=O)[C@H](C(=O)N2CCCC2)CCC3)cc1 , give its measured IC50 value.
Response line: 0.44 nM

Prompt line: For the compound O=C(C1CC(C(F)(F)F)Cc2nn(Cc3ccc(Cl)nc3)c(=O)n21)N1C[C@@H](F)[C@@H](F)C1 (single isomer, unassigned) [Example 250] , report IC50.
Response line: 0.92 nM

Prompt line: Given O=C(C1CCc2nn(Cc3ccnc(C(F)(F)F)c3F)c(=O)n21)N1C[C@@H](F)[C@@H](F)C1 (single isomer, unassigned) [Example 176] , respond with its IC50.
Response line: 445 nM

Prompt line: Report IC50 for O=C([C@@H]1CCCc2nn(CCc3ncc(C(F)(F)F)cc3Cl)c(=O)n21)N1CC[C@H](F)C1
Response line: 1.75 nM

Prompt line: Tell us which IC50 value is on record for COc1ccc(Cn2nc3n(c2=O)[C@H](C(=O)N2C[C@@H](F)[C@@H](F)C2)CCC3)cc1
Response line: 0.375 nM

Prompt line: Return IC50 (reported value) for this compound: O=C([C@@H]1CCCc2nn(Cc3nc(C(F)(F)F)no3)c(=O)n21)N1C[C@@H](F)[C@@H](F)C1
Response line: 5.15 nM
